Data provenance is patent EP0688431B1.

Molecular target: antibody D2.3
Assay: Binding of the product to the catalytic antibody
Conditions: binding to antibody D2.3
Metric name: pKd
One number for each entry, as −log10 of the molar value.

pKd of `O=[N+]([O-])c1ccc(CO)cc1` on antibody D2.3?
4.28
